meta.source: patent US10544143B2

Molecular target: human TLR9 (Homo sapiens (Human))
Sequence (Q9NR96 26-1032): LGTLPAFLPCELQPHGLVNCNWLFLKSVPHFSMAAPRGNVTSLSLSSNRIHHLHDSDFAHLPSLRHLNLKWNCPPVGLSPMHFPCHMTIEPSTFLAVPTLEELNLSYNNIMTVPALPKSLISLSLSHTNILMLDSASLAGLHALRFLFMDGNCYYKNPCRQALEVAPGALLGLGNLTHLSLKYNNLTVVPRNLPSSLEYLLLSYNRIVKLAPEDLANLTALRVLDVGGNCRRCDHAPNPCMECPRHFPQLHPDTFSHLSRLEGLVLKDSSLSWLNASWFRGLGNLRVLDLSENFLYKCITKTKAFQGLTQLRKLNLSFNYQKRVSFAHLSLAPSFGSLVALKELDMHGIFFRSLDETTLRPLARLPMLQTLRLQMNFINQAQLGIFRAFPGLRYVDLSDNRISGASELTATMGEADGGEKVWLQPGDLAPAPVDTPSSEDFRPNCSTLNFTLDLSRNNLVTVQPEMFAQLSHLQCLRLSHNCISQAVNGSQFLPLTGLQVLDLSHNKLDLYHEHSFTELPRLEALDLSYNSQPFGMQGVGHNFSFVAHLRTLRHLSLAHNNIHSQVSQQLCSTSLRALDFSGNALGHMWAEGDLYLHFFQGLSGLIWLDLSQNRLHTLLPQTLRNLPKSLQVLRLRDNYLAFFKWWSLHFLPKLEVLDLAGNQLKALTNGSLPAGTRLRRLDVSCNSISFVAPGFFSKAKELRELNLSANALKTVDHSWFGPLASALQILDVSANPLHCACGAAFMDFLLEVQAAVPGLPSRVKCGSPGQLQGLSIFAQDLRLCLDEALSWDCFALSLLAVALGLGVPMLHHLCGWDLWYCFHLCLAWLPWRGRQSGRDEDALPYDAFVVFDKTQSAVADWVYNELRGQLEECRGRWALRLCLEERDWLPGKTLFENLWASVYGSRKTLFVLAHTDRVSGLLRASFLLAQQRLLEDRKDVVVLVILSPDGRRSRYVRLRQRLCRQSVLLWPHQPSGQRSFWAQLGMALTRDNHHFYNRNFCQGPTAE
Assay: TLR9 inhibition reporter assay (HEK-Blue SEAP);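 also: SEAP driven by an IFN-β minimal promoter with NF-κB and AP-1 sites, read after 22 h, compounds dosed 0.05 nM–50 µM, inhibition scaled between agonist plus DMSO and reference-inhibitor wells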
Details: read-out: TLR9 IC50; HEK-Blue cells overexpressing human TLR9, ODN2006 5 nM stimulation, SEAP reporter
measurement.name: IC50

Some compounds with recorded IC50:
compound=Cc1c(-c2[nH]c3ccc(N4CCNC(=O)C4)nc3c2C(C)C)cn2ncnc2c1C observed_result="> 50 µM"
compound="COc1cc(-c2[nH]c3cc(F)c(C4CCC(N5CC6(COC6)C5)CC4)nc3c2C(C)C)cn2ncnc12 (stereo not shown) [Example 343]" observed_result="1.25 µM"

Hey, can you go through the list below and give me IC50 for every item?
1. COc1cc(-c2[nH]c3ccc(C4CCC(N5CCOCC5)CC4)nc3c2C(C)C)cn2ncnc12 (stereo not shown)
2. CNC1CCC(c2ccc3[nH]c(-c4cn(CCS(C)(=O)=O)c5ncccc45)c(C(C)C)c3n2)CC1 (stereo not shown) [Example 264]

Response given:
["3.59 µM", "0.255 µM"]
